- System: Rattus norvegicus
- EXPERIMENT NOTES: Compound tested for its effect on reversal of 6-OHDA induced depression in rats after sc administration.
- Assay type: functional
READOUT LABEL: ED200 (mg/kg)

> print(dat)
                                   compound  sign  data.value
1  C1=C(c2ccccc2)CCN(CCCCc2c[nH]c3ccccc23)C1     =        0.29
2  O=c1ccoc2cc(OCCCN3CCN(c4ccccn4)CC3)ccc12     >           5
3     CN1CCc2cccc3c2[C@H]1Cc1ccc(O)c(O)c1-3     =       0.005
4  CCCN1CCCC(c2ccccc2)C1 (single isomer, unassigned; (+))     =        0.48

---

- SUBJECT OF TEST: Dopamine receptor (Rattus norvegicus) (UniProt P25115+P19020+P30729+P18901+P61169)
- EXPERIMENT NOTES: Inhibitory binding activity against dopamine receptor in rat striatal membranes using [3H]HAL as the radioligand.
- Assay type: cell membranes
- Set-up: concentration or dose not given beside the values
- ASSAY CONDITIONS: Striatum; Membrane; concentration not given here
READOUT LABEL: inhibition (%)

> print(dat)
                               smiles.string  unit.tag  data.value
 1  O=c1ccoc2cc(OCCCN3CCN(c4cccc(Cl)c4)CC3)ccc12         %          35
 2  O=c1ccoc2ccc(OCCCCN3CCN(c4ccccc4)CC3)cc12         %          73
 3  COc1ccc(N2CCN(CCCOc3ccc4c(=O)ccoc4c3)CC2)cc1         %          25
 4  O=c1ccoc2cccc(OCCCN3CCN(c4ccccc4)CC3)c12         %           9
 5  Cc1ccc(N2CCN(CCCOc3ccc4c(=O)ccoc4c3)CC2)cc1C         %          41
 6  O=c1ccoc2cc(OCCCN3CCN(c4ncccn4)CC3)ccc12         %           0
 7  O=c1ccoc2cc(OCCCN3CCN(c4cnccn4)CC3)ccc12         %          17
 8  O=c1ccoc2cc(OCCCN3CCC(c4ccccc4)CC3)ccc12         %          40
 9  O=c1ccoc2cc(OCCCN3CCN(c4ccc(Cl)cc4)CC3)ccc12         %          10
10  O=c1ccoc2cc(OCCCN3CCN(c4ccc(F)cc4)CC3)ccc12         %          24
11      O=c1ccoc2cc(OCCCN3CCc4ccccc4C3)ccc12         %          50

---

- Test system: Rattus norvegicus
- EXPERIMENT NOTES: Inhibition of rat locomotor activity after being administered perorally.
- Format: functional
- ASSAY CONDITIONS: po
Reported ED50 values for a set of compounds
READOUT LABEL: ED50 (mg/kg)

> print(dat)
                              smiles.string  readout.label  sign  data.value
1  O=c1ccoc2cc(OCCCN3CCc4[nH]c5ccc(F)cc5c4C3)ccc12           ED50     =         5.5
2  O=c1ccoc2cc(OCCCN3CC=C(c4ccccc4)CC3)ccc12           ED50     =         5.5
3  O=c1ccoc2cccc(OCCCN3CCN(c4ccccc4)CC3)c12           ED50     >          30
4  O=c1ccoc2cc(OCCCN3CCN(c4ncccn4)CC3)ccc12           ED50     =        15.6
5  Cc1ccccc1N1CCN(CCCOc2ccc3c(=O)ccoc3c2)CC1           ED50     >          30
6  O=c1ccoc2cc(OCCCN3CCc4c(oc5ccccc45)C3)ccc12           ED50     >          30
7  O=c1ccoc2ccc(OCCCCN3CCN(c4ncccn4)CC3)cc12           ED50     =         8.2

Data origin: ChEMBL document CHEMBL1125728
